Entry source: paper PMC6271425

- Tested on: NO production in IFN-γ/LPS-stimulated RAW 264.7 macrophages
- ASSAY NAME: NO suppression (Griess nitrite determination) in IFN-γ/LPS-stimulated RAW 264.7 macrophages
- Assay type: cell-based, murine
- CONDITION CONTEXT: 50 µM test concentration; IFN-γ/LPS-stimulated RAW 264.7 cells; 50 µM
# NO Inhibition at 50 µM (%) ± S.E.M annotations
Form entry: value (%) — number only.

Example cases with answers are listed next.
INSERT INTO assay_data (smiles_data, observed) VALUES
  ('COc1ccccc1/C=C/C(O)=C/C(=O)c1cc(Cl)ccc1O', 70.4),
  ('O=C(/C=C(O)/C=C/c1cccc(O)c1)c1ccc(O)cc1O', 95.4),
  ('O=C(/C=C(O)/C=C/c1ccccc1O)c1ccccc1O', 95.5),
  ('COc1ccc(C(=O)/C=C(O)/C=C/c2cc(OC)c(OC)c(OC)c2)c(O)c1', 96.4);

Proceed to the following item.
## Task Bench note: what NO Inhibition at 50 µM (%) ± S.E.M did Cc1ccc(/C=C/C(O)=C/C(=O)c2ccccc2O)s1 show?
## Result 58.9
